Test system: CAL-85-1
Test: normalised viability (% of control), CellTiter-Blue; higher = more viable cells (about 100 = DMSO control)
Details: 3000 nM; incubation time: 72 h
readout_name: normalised viability

input_smiles=CC1=C(/C=C/C(C)=C/C=C/C(C)=C/C(=O)O)C(C)(C)CCC1 readout_name="normalised viability" reported_result=88.5%
input_smiles=CCCCC(=O)OCC(=O)[C@]1(O)Cc2c(O)c3c(c(O)c2[C@@H](O[C@H]2C[C@H](NC(=O)C(F)(F)F)[C@H](O)[C@H](C)O2)C1)C(=O)c1c(OC)cccc1C3=O readout_name="normalised viability" reported_result=31.2%
input_smiles=C1CN1c1nc(N2CC2)nc(N2CC2)n1 readout_name="normalised viability" reported_result=104%
input_smiles=Nc1nc(F)nc2c1ncn2[C@@H]1O[C@H](CO)[C@@H](O)[C@@H]1O readout_name="normalised viability" reported_result=96.7%

* * *

System: MDA-MB-453
Conditions: 72 h
Entries annotated with measured EC50, CellTiter-Glo
readout_name: EC50, CellTiter-Glo (µM)

molecule="O=C(/C=C/c1cccnc1)NCCCCC1CCN(C(=O)c2ccccc2)CC1 [Daporinad]" reported_result=0.00271
molecule="CC[C@@H]1C(=O)N(C)c2cnc(Nc3ccc(C(=O)NC4CCN(C)CC4)cc3OC)nc2N1C1CCCC1 [BI 2536]" reported_result=0.00255
molecule="Nc1ccccc1NC(=O)c1ccc(CNC(=O)OCc2cccnc2)cc1 [Entinostat]" reported_result=2.16
molecule="CCCCC(=O)OCC(=O)[C@]1(O)Cc2c(O)c3c(c(O)c2[C@@H](O[C@H]2C[C@H](NC(=O)C(F)(F)F)[C@H](O)[C@H](C)O2)C1)C(=O)c1c(OC)cccc1C3=O [Valrubicin]" reported_result=3.05

* * *

Tested on: BT-549
Assay: normalised viability (% of control), CellTiter-Blue; higher = more viable cells (100 = DMSO, 0 = benzethonium chloride kill control)
Details: 1 nM; incubation time: 72 h
readout_name: normalised viability (%)

molecule="Cc1ccc(-c2cc(C(F)(F)F)nn2-c2ccc(S(N)(=O)=O)cc2)cc1 [Celecoxib]" result_unit=% reported_result=90.7
molecule="CC[C@H](Nc1ncnc2[nH]cnc12)c1nc2cccc(F)c2c(=O)n1-c1ccccc1 [CAL-101]" result_unit=% reported_result=97.9
molecule="N#Cc1ccc(C(c2ccc(C#N)cc2)n2cncn2)cc1 [Letrozole]" result_unit=% reported_result=105
molecule="Nc1ccccc1NC(=O)c1ccc(CNC(=O)OCc2cccnc2)cc1 [Entinostat]" result_unit=% reported_result=107
molecule="Oc1ncc(N(CCCl)CCCl)c(O)n1 [Uracil mustard]" result_unit=% reported_result=101
molecule="COc1cc2nccc(Oc3ccc(NC(=O)Nc4cc(C)on4)c(Cl)c3)c2cc1OC [Tivozanib]" result_unit=% reported_result=81.1
molecule="CCCS(=O)(=O)Nc1ccc(F)c(C(=O)c2c[nH]c3ncc(-c4ccc(Cl)cc4)cc23)c1F [Vemurafenib]" result_unit=% reported_result=114

* * *

System: MCF-10A
Assay: normalised response (% of control), CellTiter-Glo; higher = more viable cells (100 = DMSO, 0 = benzethonium chloride kill control)
Conditions: incubation time: 72 h
Please enter MET where normalised response is greater than or equal to 80%, and NOT MET where it is lower.

compound="O=C(O)CCCCC(CCSCc1ccccc1)SCc1ccccc1 (stereo unspecified) [CPI-613] (10000 nM)" target_desc=MCF-10A category=MET
compound="CC[C@H](C)C(=O)O[C@H]1C[C@H](O)C=C2C=C[C@H](C)[C@H](CC[C@@H](O)C[C@@H](O)CC(=O)O)[C@H]21 [Pravastatin] (10000 nM)" target_desc=MCF-10A category="NOT MET"
compound="COc1cc2nccc(Oc3ccc(NC(=O)Nc4cc(C)on4)c(Cl)c3)c2cc1OC [Tivozanib] (10000 nM)" target_desc=MCF-10A category="NOT MET"
compound="CC(=O)Nc1cccc(-n2c(=O)n(C3CC3)c(=O)c3c(Nc4ccc(I)cc4F)n(C)c(=O)c(C)c32)c1 [Trametinib] (250 nM)" target_desc=MCF-10A category="NOT MET"
compound="C=CC(=O)N1CCC[C@@H](n2nc(-c3ccc(Oc4ccccc4)cc3)c3c(N)ncnc32)C1 [Ibrutinib] (1000 nM)" target_desc=MCF-10A category="NOT MET"
compound="Nc1ccccc1NC(=O)c1ccc(CNC(=O)OCc2cccnc2)cc1 [Entinostat] (10000 nM)" target_desc=MCF-10A category=MET

* * *

System: SK-BR-3
Experiment: normalised viability (% of control), CellTiter-Blue; higher = more viable cells (about 100 = DMSO control)
Settings: 10 nM; incubation time: 72 h
Entries annotated with measured normalised viability
readout_name: normalised viability (%)

compound="CC1=C(/C=C/C(C)=C/C=C/C(C)=C/C(=O)O)C(C)(C)CCC1 [Tretinoin]" result_unit=% reported_result=103
compound="CCCS(=O)(=O)Nc1ccc(F)c(C(=O)c2c[nH]c3ncc(-c4ccc(Cl)cc4)cc23)c1F [Vemurafenib]" result_unit=% reported_result=88.5
compound="NCCCNCCSP(=O)(O)O [Amifostine]" result_unit=% reported_result=81.9
compound="O=C(O)C(=O)O.[NH-][C@@H]1CCCC[C@H]1[NH-].[Pt+2] [Oxaliplatin]" result_unit=% reported_result=98.1

* * *

Tested on: SK-BR-3
Test: normalised viability (% of control), CellTiter-Blue; higher = more viable cells (about 100 = DMSO control)
Details: 1000 nM; incubation time: 72 h
readout_name: normalised viability (%)

input_smiles=Nc1nc(F)nc2c1ncn2[C@@H]1O[C@H](CO)[C@@H](O)[C@@H]1O readout_name="normalised viability" reported_result=93.3
input_smiles=C[C@H]1C[C@@H]2[C@H]([C@@H](O)C[C@@]3(C)[C@H]2CC[C@]3(O)C(=O)CO)[C@@]2(C)C=CC(=O)C=C12 readout_name="normalised viability" reported_result=97.6
input_smiles=Cc1cnc(NC(=O)Nc2cc(Br)c(C)cc2OC[C@@H]2CNCCO2)cn1 readout_name="normalised viability" reported_result=30.1
input_smiles=Cc1ccc(-c2cc(C(F)(F)F)nn2-c2ccc(S(N)(=O)=O)cc2)cc1 readout_name="normalised viability" reported_result=90.2

* * *

Entries annotated with measured normalised response
System: MDA-MB-468
Assay: normalised response (% of control), CellTiter-Glo; higher = more viable cells (100 = DMSO, 0 = benzethonium chloride kill control)
Conditions: incubation time: 72 h
readout_name: normalised response (%)

compound="CC1=C(/C=C/C(C)=C/C=C/C(C)=C/C(=O)O)C(C)(C)CCC1 [Tretinoin] (1 nM)" result_unit=% reported_result=102
compound="CCCCC(=O)OCC(=O)[C@]1(O)Cc2c(O)c3c(c(O)c2[C@@H](O[C@H]2C[C@H](NC(=O)C(F)(F)F)[C@H](O)[C@H](C)O2)C1)C(=O)c1c(OC)cccc1C3=O [Valrubicin] (500 nM)" result_unit=% reported_result=47.1
compound="Oc1ncc(N(CCCl)CCCl)c(O)n1 [Uracil mustard] (10 nM)" result_unit=% reported_result=90.3
compound="CCCCC(=O)OCC(=O)[C@]1(O)Cc2c(O)c3c(c(O)c2[C@@H](O[C@H]2C[C@H](NC(=O)C(F)(F)F)[C@H](O)[C@H](C)O2)C1)C(=O)c1c(OC)cccc1C3=O [Valrubicin] (5 nM)" result_unit=% reported_result=93.1
compound="O=C(Cc1ccc(-c2ccc(OCCN3CCOCC3)cc2)cn1)NCc1ccccc1 [KX2-391] (1 nM)" result_unit=% reported_result=102
compound="O=C(O)C1(C(=O)O)CCC1.[NH2-].[NH2-].[Pt+2] [Carboplatin] (1000 nM)" result_unit=% reported_result=100
compound="CCc1cncnc1N1CCN(Cc2nc3ccc(C(F)(F)F)cc3[nH]2)CC1 (1000 nM)" result_unit=% reported_result=90.3
compound="C[C@H]1C[C@@H]2[C@H]([C@@H](O)C[C@@]3(C)[C@H]2CC[C@]3(O)C(=O)CO)[C@@]2(C)C=CC(=O)C=C12 [Methylprednisolone] (1 nM)" result_unit=% reported_result=104
compound="Oc1ncc(N(CCCl)CCCl)c(O)n1 [Uracil mustard] (1 nM)" result_unit=% reported_result=107
compound="CC[C@@H]1C(=O)N(C)c2cnc(Nc3ccc(C(=O)NC4CCN(C)CC4)cc3OC)nc2N1C1CCCC1 [BI 2536] (100 nM)" result_unit=% reported_result=47.9
compound="O=C(Cc1ccc(-c2ccc(OCCN3CCOCC3)cc2)cn1)NCc1ccccc1 [KX2-391] (1000 nM)" result_unit=% reported_result=33.4
compound="O=C(/C=C/c1cccnc1)NCCCCC1CCN(C(=O)c2ccccc2)CC1 [Daporinad] (100 nM)" result_unit=% reported_result=0.85
compound="Nc1ncn([C@H]2C[C@H](O)[C@@H](CO)O2)c(=O)n1 [Decitabine] (1 nM)" result_unit=% reported_result=102
compound="O=C(Cc1ccc(-c2ccc(OCCN3CCOCC3)cc2)cn1)NCc1ccccc1 [KX2-391] (10 nM)" result_unit=% reported_result=94.6
